Biological target: Src-kinase (Homo sapiens)
Construct: purchased Promega Corporation
Sequence (P12931 whole entry): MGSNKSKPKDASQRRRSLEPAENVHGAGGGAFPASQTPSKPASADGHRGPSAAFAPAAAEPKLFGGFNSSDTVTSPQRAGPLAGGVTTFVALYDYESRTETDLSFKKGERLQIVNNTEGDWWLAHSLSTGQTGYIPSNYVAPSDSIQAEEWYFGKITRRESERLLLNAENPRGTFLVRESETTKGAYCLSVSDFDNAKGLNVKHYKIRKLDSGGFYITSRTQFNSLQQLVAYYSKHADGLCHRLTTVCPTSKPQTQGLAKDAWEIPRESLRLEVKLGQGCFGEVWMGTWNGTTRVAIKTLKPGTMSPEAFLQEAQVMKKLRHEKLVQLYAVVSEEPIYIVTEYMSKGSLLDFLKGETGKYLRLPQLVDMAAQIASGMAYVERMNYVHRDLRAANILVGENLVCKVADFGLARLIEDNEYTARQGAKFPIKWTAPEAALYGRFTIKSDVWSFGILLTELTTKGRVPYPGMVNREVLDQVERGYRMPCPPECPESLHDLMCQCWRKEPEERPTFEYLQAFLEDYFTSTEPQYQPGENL
Assay: Src Kinase Enzyme System, ADP-Glo luminescence
Type: biochemical
Settings: at 2.5 μM
Reported inhibition at 2.5 µM values for a set of compounds
The reply should be a number in %, with the unit left off.

CCCCC[C@@H](O)/C=C/[C@H]1CCC(O)[C@@H]1C/C=C\CCCCO (some centres unmarked) [Compound 5, (5Z,13E)-1,9,15-triol-prosta-5,13-diene]	46

The record that follows has no inhibition at 2.5 µM shown yet.
Exercise: // inhibition at 2.5 µM lookup, key: CCCCCC(O)/C=C/[C@H]1C=CC(=O)[C@@H]1C/C=C\CCCC(=O)O (some centres unmarked) [Compound 2]
Key: 59
